Quick reference for z-score among some compounds
Experiment: MM1S cell viability effects, profiling panel, calcein-AM fluorescence, 48 h, basal (AID 1165);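 further: viability of MM1S multiple myeloma cells under basal unstimulated conditions; test concentration not given here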
Conditions: higher = more signal

compound | readout-kind | meas-value
COC(=O)C(CC#Cc1ccc2c(c1)[C@]1(C(=O)N2)[C@H](C(N)=O)[C@H]2C(=O)O[C@H](c3ccccc3)[C@H](c3ccccc3)N2[C@@H]1c1ccc(O)cc1)C(=O)OC | z-score | 0.555
CCN(CC)c1ccc(N2CC=CC34O[C@@H]5C=CCOC(=O)[C@@H]5[C@H]3C(=O)N(C(C)CO)[C@@H]4C2=O)cc1 (stereo partly drawn) | z-score | 1.15
O=C1N(CCS(=O)(=O)c2ccccc2)Cc2ccccc2[C@@H]2OC(c3ccc(OCCCO)cc3)=N[C@]12Cc1ccccc1 | z-score | -0.0623
CC1CC/C=C\[C@H]2OC34C=CCN(C(C)C)C(=O)[C@H]3N(C(CO)C(C)C)C(=O)[C@@H]4C2C(=O)O1 (stereo partly drawn) | z-score | 1.4
CC(C)(C)OC(=O)CC[C@@]1(C(=O)NCc2ccccc2)N=C(c2ccc(OCCCO)cc2)O[C@@H]1c1ccccc1CN=[N+]=[N-] | z-score | 0.507

Summary for this compound, C=C[C@H](OC)[C@@H](OC(=O)Nc1ccc(OC)cc1)c1ccc(OC)c(O)c1 : z-score is 0.478

Summary for this compound, CO[C@H]1O[C@H](CO)[C@@H](OC(=O)Nc2ccccc2)[C@H](OC(=O)Nc2ccccc2-c2ccccc2)[C@H]1OC(=O)Nc1ccccc1-c1ccccc1 : z-score is -3.51

Summary for this compound, COC(=O)[C@@]1(CCC(=O)OC(C)(C)C)COC(c2ccc(OCCCO)cc2)=N1 : z-score is 0.203

###

Assay: basal MM1S mitochondrial membrane potential changes, profiling panel, cell-based, JC-1 fluorescence, 24 h, 100 nL compound (AID 1170); further: test concentration not given here
Details: higher = more signal
readout-kind: z-score
Respond using a number only.

Below, 3 molecules whose answers are already recorded.
molecule | meas-value
CCN(CC)c1ccc(N2CC=CC34O[C@@H]5C=CCOC(=O)[C@@H]5[C@H]3C(=O)N(C(CO)C(C)C)[C@@H]4C2=O)cc1 (some centres undefined) | 0.728
CC(CO)N1C(=O)[C@@H]2C3C(=O)OCCC/C=C\[C@H]3OC23C=CCN(Cc2ccccc2)C(=O)[C@@H]13 (some centres undefined) | 0.322
C=CCN1C(=O)[C@]2(O[C@H](CCn3cc([C@H](O)c4ccccc4)nn3)[C@@H]([Si](C)(C)c3ccc(OC)cc3)[C@@H]2C)c2cc(N3CCOC3=O)ccc21 | -0.286

Now examine the next entry.
Summary for this molecule, COC(=O)c1c2oc(c1C(=O)OC)C(=O)N[C@@H](C(C)C)Cn1nncc1C1(CCCCC1)NC(=O)N[C@H](CO)CC2 : z-score is 1.08

###

Experiment: basal MM1S mitochondrial membrane potential changes, profiling panel, cell-based, JC-1 fluorescence, 24 h, 100 nL compound (AID 1170); further: test concentration not given here
Details: higher = more signal
readout-kind: z-score
Respond using a number only.

Summary for this molecule, COCCCNC(=O)[C@@]1(CCS(=O)(=O)c2ccccc2)N=C(c2ccc(OCCCO)cc2)O[C@H]1c1ccccc1CN=[N+]=[N-] : z-score is 0.175

Summary for this molecule, CCN(CC)c1ccc(N2CC=CC34O[C@@H]5C=CCOC(=O)[C@@H]5[C@H]3C(=O)N(C(C)CO)[C@@H]4C2=O)cc1 (some centres not stated) : z-score is 0.907

Summary for this molecule, CN(C)CCCC[C@@H]1NC(=O)[C@@H]2C[C@H](C(=O)NCCCCCNC(=O)CS)[C@H](c3cccc(OCCO)c3)N2C1=O : z-score is 0.249

Summary for this molecule, COc1ccc(C(=O)Nc2cccc(CN3C(=O)[C@@]4(O[C@@H](CCO)[C@H]([Si](C)(C)c5ccc(OC)cc5)[C@H]4C)c4ccccc43)c2)cc1 : z-score is -2.36

Summary for this molecule, CN1C=C(C(=O)OCCS(C)(=O)=O)C(C(=O)OCCS(C)(=O)=O)=CC(CCCO)=CC1c1cccs1 (configuration not stated) : z-score is 0.885

Summary for this molecule, CCOC(=O)C[C@H]1[C@H](OC(=O)c2cc3ccccc3oc2=O)[C@@H](NC(=O)c2ccccc2)c2cc(OCCCO)ccc2N1C(=O)Cc1ccc(OC)cc1 : z-score is 1.13

Summary for this molecule, CC(=O)NCCCC[C@@H]1NC(=O)[C@@H]2C[C@H](C(=O)O)[C@H](c3cccc(OCCO)c3)N2C1=O : z-score is 0.483
